Read-out: Interleukin-8 (IL8), CXCL8 (gene 3576)
Protocol Description: BSK_SAg_IL8: BioMAP Diversity Plus: SAg Assay for Interleukin-8 (IL8) Biomarker Activity (AID 2283094)
Measurement Setup: primary human HUVEC with PBMC; actives raise or lower the signal
Active and inactive are the calls of the source. Rule for the calls: active = hit-call score of the fitted dose curve at least 0.9, where 1 is the maximum; inactive = score below 0.9.
Measured Attribute: outcome

molecule=COc1cc(CNC(=O)CCCC/C=C/C(C)C)ccc1O measured_attribute=outcome result=inactive
molecule=COc1ccccc1Oc1c(NS(=O)(=O)c2ccc(C(C)(C)C)cc2)nc(-c2ncccn2)nc1OCCO measured_attribute=outcome result=inactive
molecule="CCCCCCCCCC/C=C/C1CC(=O)OC1=O (stereo not drawn)" measured_attribute=outcome result=inactive
